tested on: human k-opioid receptor (kOR) (Homo sapiens, UniProt P41145)
Construct: expressed in transfected cells; host or cells: RBL cells (membrane homogenates)
Sequence (P41145 whole entry): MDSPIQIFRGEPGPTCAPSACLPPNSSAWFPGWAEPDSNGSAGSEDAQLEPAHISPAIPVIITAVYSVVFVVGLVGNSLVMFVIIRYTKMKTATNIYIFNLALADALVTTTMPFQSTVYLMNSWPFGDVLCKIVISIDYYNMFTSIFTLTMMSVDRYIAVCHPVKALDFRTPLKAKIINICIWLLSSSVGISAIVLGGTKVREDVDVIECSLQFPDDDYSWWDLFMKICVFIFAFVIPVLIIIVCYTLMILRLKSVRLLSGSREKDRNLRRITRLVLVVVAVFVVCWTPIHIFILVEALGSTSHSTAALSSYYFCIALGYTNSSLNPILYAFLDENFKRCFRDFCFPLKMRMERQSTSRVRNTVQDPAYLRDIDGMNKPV
assay summary: Human k-opioid (KOP) receptor (agonist radioligand [3H]U-69593) binding assay, transfected RBL cell membranes
condition description: read-out: KOR % Inh. @ 1 uM
# key: entry, value: inhibition at 1 µM
Unit % implied. Number only.

Reference set, count: 4
Query: # get_value(readout='inhibition at 1 µM', item= C[C@@]1(COc2ccc(C(F)(F)F)cn2)CCCN1C(=O)c1nn2c(c1-c1ccccc1)OCCC2 [Example 157] )
Response: 7

Query: # get_value(readout='inhibition at 1 µM', item= O=C(c1c(-c2ccccc2)nn2ccccc12)N1CCC[C@H]1Cn1ccc(-c2ccccc2)n1 [Example 13] )
Response: 56

Query: # get_value(readout='inhibition at 1 µM', item= O=C(c1nn2ccccc2c1-c1ccccc1)N1CCC[C@H]1Cc1nc(-c2ccc(F)cn2)no1 [Example 117] )
Response: 19

Query: # get_value(readout='inhibition at 1 µM', item= O=C(c1c(-c2ccccc2)nn2ccccc12)N1CCCC[C@H]1COc1ccc(C(F)(F)F)cn1 [Example 24] )
Response: 52

***
Query: # get_value(readout='inhibition at 1 µM', item= O=C(c1nn2ccccc2c1-c1ccccn1)N1CCC[C@H]1Cn1cc(-c2ccccn2)cn1 [Example 173] )
Response: 3

Query: # get_value(readout='inhibition at 1 µM', item= C[C@@]1(Cn2ccc(-c3ccccn3)n2)CCCN1C(=O)c1nn2c(c1-c1ccccc1)COCC2 [Example 154] )
Response: 23
